experiment: Half-life period after oral dose of 3 mg/kg; assay type: ADME, organism-based; set-up: dose 3 mg/kg, route oral; conditions: in vivo
assayEndpoint: half-life (h)
Respond numerically; units are h and should not be typed.

**Query** Can you share its half-life? I mean this molecule: "CCCN(Cc1ccc(-c2ccccc2-c2nnn[nH]2)cc1)c1ncccc1C(=O)O"
**Result** 5.7

====

experiment: Half-life period of compound after intravenous dose of 3 mg/kg; assay type: ADME, organism-based; parameters: dose 3 mg/kg, route intravenous; settings: in vivo
assayEndpoint: half-life (h)
Respond numerically; units are h and should not be typed.

**Query** Can you share its half-life? I mean this molecule: "CCCN(Cc1ccc(-c2ccccc2-c2nnn[nH]2)cc1)c1ncccc1C(=O)O"
**Result** 6.6

====

experiment: Half-life period after oral dose of 0.1 mg//kg; format: ADME, organism-based; details: in vivo
assayEndpoint: half-life

**Query** Can you share its half-life? I mean this compound: "CCCN(Cc1ccc(-c2ccccc2-c2nnn[nH]2)cc1)c1ncccc1C(=O)O"
**Result** ≤ 12 h

====

test: Plasma clearance after intravenous dose of 3 mg/kg; format: ADME, organism-based; design: dose 3 mg/kg, route intravenous; conditions: read-out: Clp
assayEndpoint: clearance (mL/min)
Respond numerically; units are mL/min and should not be typed.

**Query** Can you share its clearance? I mean this compound: "CCCN(Cc1ccc(-c2ccccc2-c2nnn[nH]2)cc1)c1ncccc1C(=O)O"
**Result** 0.07

====

experiment: Bioavailability after oral dose of 10 mg/kg; format: ADME, organism-based; conditions: eutheria, in vivo
assayEndpoint: bioavailability (%)
Respond numerically; units are % and should not be typed.

**Query** Can you share its bioavailability? I mean this compound: "CCCCN(Cc1ccc(-c2ccccc2-c2nn[nH]n2)cc1)c1ncncc1C(=O)O.Cl"
**Result** 4.8

====

assay: Cmax value after oral dose of 10 mg/kg; assay type: ADME, organism-based; set-up: dose 10 mg/kg, route oral; conditions: in vivo
assayEndpoint: Cmax (ng/mL)
Respond numerically; units are ng/mL and should not be typed.

**Query** Can you share its Cmax? I mean this molecule: "CCCCN(Cc1ccc(-c2ccccc2-c2nn[nH]n2)cc1)c1ncncc1C(=O)O.Cl"
**Result** 840

====

test: Bioavailability after oral dose of 0.1 mg//kg; type: ADME, organism-based; conditions: eutheria, in vivo
assayEndpoint: bioavailability (%)
Respond numerically; units are % and should not be typed.

**Query** Can you share its bioavailability? I mean this compound: "CCCN(Cc1ccc(-c2ccccc2-c2nnn[nH]2)cc1)c1ncccc1C(=O)O"
**Result** 97.9

====

experiment: Bioavailability after oral dose of 1 mg/kg; format: ADME, organism-based; details: eutheria, in vivo
assayEndpoint: bioavailability (%)
Respond numerically; units are % and should not be typed.

**Query** Can you share its bioavailability? I mean this compound: "CCCN(Cc1ccc(-c2ccccc2-c2nnn[nH]2)cc1)c1ncccc1C(=O)O"
**Result** 34.9

====

experiment: Cmax value after oral dose of 3.87 mg/kg; format: ADME, organism-based; design: dose 3.87 mg/kg, route oral; settings: in vivo
assayEndpoint: Cmax (ng/mL)
Respond numerically; units are ng/mL and should not be typed.

>>> valueobserved("CCc1nc2c(C)cc(C)nc2n1Cc1ccc(-c2ccccc2-c2nnn[nH]2)cc1")
1590

With those in mind, consider the next molecule.
**Query** Can you share its Cmax? I mean this molecule: "CCCCN(Cc1ccc(-c2ccccc2-c2nn[nH]n2)cc1)c1ncncc1C(=O)O.Cl"
**Result** 510

====

test: Cmax value after oral dose of 0.1 mg//kg; type: ADME, organism-based; design: dose 0.1 mg//kg, route oral; details: in vivo
assayEndpoint: Cmax (ng/mL)
Respond numerically; units are ng/mL and should not be typed.

**Query** Can you share its Cmax? I mean this molecule: "CCCN(Cc1ccc(-c2ccccc2-c2nnn[nH]2)cc1)c1ncccc1C(=O)O"
**Result** 490

====

assay: Bioavailability after oral dose of 3 mg/kg; type: ADME, organism-based; conditions: eutheria, in vivo
assayEndpoint: bioavailability (%)
Respond numerically; units are % and should not be typed.

**Query** Can you share its bioavailability? I mean this compound: "CCCN(Cc1ccc(-c2ccccc2-c2nnn[nH]2)cc1)c1ncccc1C(=O)O"
**Result** 36.3

====

experiment: Half-life period of compound after intravenous dose of 3.87 mg/kg; format: ADME, organism-based; parameters: dose 3.87 mg/kg, route intravenous; details: in vivo
half-life by entry:
Respond numerically; units are h and should not be typed.

>>> valueobserved("CCc1nc2c(C)cc(C)nc2n1Cc1ccc(-c2ccccc2-c2nnn[nH]2)cc1")
4.5

With those in mind, consider the next molecule.
**Query** Can you share its half-life? I mean this molecule: "CCCCN(Cc1ccc(-c2ccccc2-c2nn[nH]n2)cc1)c1ncncc1C(=O)O.Cl"
**Result** 1.5

====

assay: Plasma clearance after intravenous dose of 0.3 mg/kg; format: ADME, organism-based; parameters: dose 0.3 mg/kg, route intravenous; conditions: read-out: Clp
assayEndpoint: clearance (mL/min)
Respond numerically; units are mL/min and should not be typed.

**Query** Can you share its clearance? I mean this compound: "CCCN(Cc1ccc(-c2ccccc2-c2nnn[nH]2)cc1)c1ncccc1C(=O)O"
**Result** 0.07

====

experiment: Volume of distribution of the terminal phase (= CLp+ plasma elimination rate constant) after intravenous dose of 1 mg/kg; type: ADME, organism-based; set-up: dose 1 mg/kg, route intravenous; conditions: read-out: Vbeta
assayEndpoint: Vd (L/kg)
Respond numerically; units are L/kg and should not be typed.

**Query** Can you share its Vd? I mean this compound: "CCCN(Cc1ccc(-c2ccccc2-c2nnn[nH]2)cc1)c1ncccc1C(=O)O"
**Result** 0.13

====

assay: Volume of distribution of the terminal phase (CLp+ plasma elimination rate constant) after intravenous dose of 3.87 mg/kg; format: ADME, organism-based; design: dose 3.87 mg/kg, route intravenous; conditions: read-out: Vbeta
assayEndpoint: Vd (L/kg)
Respond numerically; units are L/kg and should not be typed.

**Query** Can you share its Vd? I mean this compound: "CCCCN(Cc1ccc(-c2ccccc2-c2nn[nH]n2)cc1)c1ncncc1C(=O)O.Cl"
**Result** 0.42
